Tested on: SR
experiment_summary: NCI tumour cell line growth inhibition, 48 h
The source made the active and inactive calls. Rule as the data show it: active = GI50 up to about 1.1 µM and inactive = higher.
# reported GI50; entries follow
parameter_measured: GI50

{"compound": "C/C(=C1/N=C(c2ccccc2)OC1=O)c1cccs1", "test_result": "> 100 µM (inactive)"}
{"compound": "CC(C)[C@](O)(C(=O)OCC1=CC[N+]2([O-])CC[C@@H](O)[C@@H]12)[C@H](C)O (stereo partly specified) [INDICINE N-OXIDE]", "test_result": "4630 µM (inactive)"}
{"compound": "C(/c1ccco1)=c1/nc(-c2ccccc2)n2c1nc1ccccc12", "test_result": "11.4 µM (inactive)"}
{"compound": "COc1cc(C2c3cc4c(cc3OC(N3CCOCC3)C2C)OCO4)ccc1O (stereo unspecified)", "test_result": "5.66 µM (inactive)"}
{"compound": "CCOC(=O)C1CC/C(=C(/C#N)C(=O)OC)N1 (stereo unspecified)", "test_result": "> 100 µM (inactive)"}
{"compound": "CCOC(=O)C(CC/C=C\\c1ccccc1)N1CCC[C@H]1C(=O)OC (stereo partly specified)", "test_result": "40 µM (inactive)"}
